src = patent US6720346B2

Target: human CDK4/cyclin D3 (Homo sapiens)
Sequence (P11802 whole entry): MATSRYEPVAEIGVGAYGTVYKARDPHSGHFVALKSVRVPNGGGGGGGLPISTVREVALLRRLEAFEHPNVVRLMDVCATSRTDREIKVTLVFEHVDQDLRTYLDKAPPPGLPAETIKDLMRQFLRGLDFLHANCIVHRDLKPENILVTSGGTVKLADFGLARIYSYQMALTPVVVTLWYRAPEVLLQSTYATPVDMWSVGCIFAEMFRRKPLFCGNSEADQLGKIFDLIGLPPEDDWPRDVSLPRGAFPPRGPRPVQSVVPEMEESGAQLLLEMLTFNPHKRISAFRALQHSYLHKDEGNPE
Sequence (P30281 1-264 partner limits assumed): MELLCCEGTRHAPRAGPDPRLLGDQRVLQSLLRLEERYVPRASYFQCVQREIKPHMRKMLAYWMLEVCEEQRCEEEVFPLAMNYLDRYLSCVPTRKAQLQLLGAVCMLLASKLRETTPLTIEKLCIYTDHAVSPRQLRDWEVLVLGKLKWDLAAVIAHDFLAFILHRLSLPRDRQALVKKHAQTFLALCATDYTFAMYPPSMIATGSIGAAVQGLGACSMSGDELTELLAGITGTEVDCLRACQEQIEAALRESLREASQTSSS
Assay: Inhibition of CDK4/cyclin D retinoblastoma kinase activity (Ki; % inhibition)
Settings: apparent Ki, CDK4/cyclin D3, Rb substrate
Counter-ions that a name gives are not always drawn.
METRIC NAME: Ki (nM)
Report as a plain number; the unit nM is understood.

                                   molecule  recorded_result
0  C[C@@H](CN(C)C)NC(=O)c1ccc(Nc2nc(N)c(C(=O)c3c(F)cccc3F)s2)cc1               35

// Ki lookup, key: "C[C@@H]1CCC[C@H](C)N1CCNC(=O)c1ccc(Nc2nc(N)c(C(=O)c3c(F)cccc3F)s2)cc1"
7

// Ki lookup, key: Cc1ccsc1C(=O)c1sc(Nc2ccc(C(=O)N[C@H](C)CN(C)C)cc2)nc1N [Example A62, Trifluoroacetic Acid Salt]
120

// Ki lookup, key: "Cn1cncc1CNC(=O)c1ccc(Nc2nc(N)c(C(=O)c3c(F)cccc3F)s2)cc1"
22
